# Assay Info: Solubility in simulated gastric/intestinal fluids and pH media
# Assay type: physicochemical
# Experimental Context: SGF (simulated gastric fluid), pH 1.6, simulated gastric fluid, thermodynamic from solid, Batch 1, SGF pH 1.6, 24 hr
Where a name gives a salt, the structure may show the parent alone.
Endpoint Name: solubility at 24 h (µg/mL)
Report the figure in µg/mL without appending any unit label.

Find the recorded solubility at 24 h belonging to Cc1c(F)cccc1NC(=O)Nc1ccc(Cl)c(S(=O)(=O)[C@H]2CCCNC2)c1O [HBr Salt] and report it.
795

----------
# Assay Info: Solubility in simulated gastric/intestinal fluids and pH media
# Assay type: physicochemical
# Experimental Context: pH 8, aqueous buffer, thermodynamic from solid, Batch 3, pH 8.0, 0.5 hr
Counter-ions that a name gives are not always drawn.
Endpoint Name: solubility at 0.5 h (µg/mL)
Report the figure in µg/mL without appending any unit label.

Find the recorded solubility at 0.5 h belonging to Cc1c(F)cccc1NC(=O)Nc1ccc(Cl)c(S(=O)(=O)[C@H]2CCCNC2)c1O [HBr Salt] and report it.
52

----------
# Assay Info: Solubility in simulated gastric/intestinal fluids and pH media
# Type: physicochemical
# Experimental Context: SGF (simulated gastric fluid), pH 1.6, simulated gastric fluid, thermodynamic from solid, Batch 3, SGF pH 1.6, 0.5 hr
Structures can show the parent of a compound that is named as a salt.
Endpoint Name: solubility at 0.5 h (µg/mL)
Report the figure in µg/mL without appending any unit label.

Find the recorded solubility at 0.5 h belonging to Cc1c(F)cccc1NC(=O)Nc1ccc(Cl)c(S(=O)(=O)[C@H]2CCCNC2)c1O [HBr Salt] and report it.
757

----------
# Assay Info: Solubility in simulated gastric/intestinal fluids and pH media
# Type: physicochemical
# Experimental Context: SGF (simulated gastric fluid), pH 1.6, simulated gastric fluid, thermodynamic from solid, Batch 1, SGF pH 1.6, 0.5 hr
Structures can show the parent of a compound that is named as a salt.
Endpoint Name: solubility at 0.5 h (µg/mL)
Report the figure in µg/mL without appending any unit label.

Find the recorded solubility at 0.5 h belonging to Cc1c(F)cccc1NC(=O)Nc1ccc(Cl)c(S(=O)(=O)[C@H]2CCCNC2)c1O [HBr Salt] and report it.
770

----------
# Assay Info: Solubility in simulated gastric/intestinal fluids and pH media
# Type: physicochemical
# Experimental Context: fed-state simulated intestinal fluid (Phares FeSSIF), fessif, thermodynamic from solid, Batch 2, Phares FeSSIF pH .5, 0.5 hr
Counter-ions that a name gives are not always drawn.
Endpoint Name: solubility at 0.5 hr (µg/mL)
Report the figure in µg/mL without appending any unit label.

Find the recorded solubility at 0.5 hr belonging to Cc1c(F)cccc1NC(=O)Nc1ccc(Cl)c(S(=O)(=O)[C@H]2CCCNC2)c1O [HBr Salt] and report it.
478

----------
# Assay Info: Solubility in simulated gastric/intestinal fluids and pH media
# Type: physicochemical
# Experimental Context: SGF (simulated gastric fluid), pH 1.6, simulated gastric fluid, thermodynamic from solid, Batch 2, SGF pH 1.6, 0.5 hr
Structures can show the parent of a compound that is named as a salt.
Endpoint Name: solubility at 0.5 h (µg/mL)
Report the figure in µg/mL without appending any unit label.

Find the recorded solubility at 0.5 h belonging to Cc1c(F)cccc1NC(=O)Nc1ccc(Cl)c(S(=O)(=O)[C@H]2CCCNC2)c1O [HBr Salt] and report it.
414

The reported numbers originate from patent US9809540B2.
